tested on: NCI/ADR-RES ovarian; experiment: NCI tumour cell line growth inhibition, 48 h
Entries and their TGI values follow.
outcome measure: TGI

# compound, result
rows = [
    ("COC(=O)C12OC(C)(C(CC(=O)OC(C)(C)C)C1=O)C1C(=O)N(c3ccccc3)C(=O)C12 (stereo not drawn)", "> 100 µM"),
    ("Cc1nc2ccc(F)cc2c2c1CCO2", "> 100 µM"),
    ("CC(=O)OC1COC(n2nc(/C=C/c3ccc(Cl)cc3)c(=O)n(/N=C/c3ccccc3)c2=S)C(OC(C)=O)C1OC(C)=O (stereo not drawn)", "> 100 µM"),
    ("COC1(O)C(=O)c2ccccc2OC1(OC)c1ccccc1 (stereo not drawn)", "> 100 µM"),
    ("O=C1/C(=C/c2ccc([N+](=O)[O-])o2)Oc2ccc(Br)cc21", "42 µM"),
    ("C/C(=N\\Nc1ccccc1Br)c1cccc(/C(C)=N/Nc2ccccc2Br)n1", "> 100 µM"),
    ("c1ccc(-c2ccc(-c3cc4ccccc4[nH]3)cc2)cc1", "> 100 µM"),
    ("Cc1ccc(/C=C2/SC(Nc3nc(-c4nc(NC5=NC(=O)/C(=C\\c6ccc(C)cc6)S5)sc4C)c(C)s3)=NC2=O)cc1", "> 12.7 µM"),
    ("O=C1c2cc3c(cc2CC12Cc1cc4c(cc1C2=O)CCC4)CCC3", "> 100 µM"),
    ("CC(C)(C)[Si](C)(C)OCC1OC(n2ccc(=O)[nH]c2=O)C(O[Si](C)(C)C(C)(C)C)[C@@]12O[C@H]2C(N)=O (stereo partly drawn)", "38.5 µM"),
    ("CC(=O)NCCSC(=O)c1ccccc1", "0.688 µM"),
    ("N#CCC(=O)c1cc(OCc2cc(OCc3ccc(Br)cc3)cc(OCc3ccc(Br)cc3)c2)cc(OCc2cc(OCc3ccc(Br)cc3)cc(OCc3ccc(Br)cc3)c2)c1", "> 100 µM"),
    ("CC(=O)Nc1ccccc1C=C1c2ccccc2-c2ccccc21", "66.7 µM"),
    ("CC(C)[C@@]12C[C@@H](OC(=O)COC(=O)/C=C/c3ccccc3)[C@@](C)(O1)[C@@H]1CC[C@@H](C)[C@H]1[C@@H]2OC(=O)/C=C/c1ccccc1", "> 100 µM"),
    ("Cc1cnc(/N=c2\\sc(C)cn2-c2ncc(C)s2)s1", "> 100 µM"),
    ("C=C1CC2(C[C@@H](c3ccccc3)O[C@@H](c3ccccc3)C2)OC1=O (stereo partly drawn)", "15.4 µM"),
    ("C#CCOCn1ccc(=O)[nH]c1=O", "> 100 µM"),
    ("O=C1C=C[C@@]23C[C@@H](Nc4c(O)c5c6c(c42)=NCCC=6C=N5)SC3=C1", "10.1 µM"),
    ("COc1cc(-c2c(C#N)c(N)c(C#N)c3c2COc2ccccc2-3)cc(OC)c1OC", "> 100 µM"),
    ("CC1=C(O)C(=O)C[C@]2(C)[C@H]3CC=C4[C@@H]5CC(C)(C)CC[C@@H]5C(=O)[C@H](O)[C@@]4(C)[C@]3(C)CC[C@@H]12", "> 50 µM"),
    ("O=c1c2c(c1=O)C1(SCCCS1)c1cc(Cl)ccc1O2", "> 100 µM"),
    ("COc1ccc(Cc2c(N)[nH]c(=O)n(C)c2=O)cc1", "> 100 µM"),
    ("C=C[C@H]1CC[C@H]2[C@@H]3CC=C4C[C@@H](OC5OCC(O)C(O)C5O)CC[C@]4(C)[C@H]3CC[C@]12C (stereo partly drawn)", "38.1 µM"),
    ("CN(c1ccc(NC(=O)Nc2ccc(OC(F)(F)F)cc2)cc1)c1ccnc(Nc2cccc(S(N)(=O)=O)c2)n1", "25 µM"),
    ("CC(=O)CCC(=O)C(=[N+]=[N-])S(=O)(=O)c1ccccc1", "> 100 µM"),
    ("CCCc1c(O)c(=O)c2c(OC)cc(OC)c3c4c(OC)cc(OC)c5c(=O)c(O)c(CCC)c(c1c23)c54", "3.55 µM"),
    ("Cc1nc(-n2[nH]c(C)c(CCO)c2=O)[nH]c(=O)c1CCO", "> 100 µM"),
    ("COc1cc(NCc2ccc3nc(-c4ccccc4)c(N)nc3c2)cc(OC)c1OC", "57.8 µM"),
    ("Cc1cc(OCc2nn(CN3CCN(C)CC3)c(=S)n2/N=C/c2ccc(-c3ccc(Cl)cc3Cl)o2)ccc1Cl", "> 100 µM"),
    ("O=C(O)CCC(NC(=O)c1ccc(Nc2cnc3ccc(C(F)(F)F)cc3n2)cc1)C(=O)O (stereo not drawn)", "> 100 µM"),
    ("CC(CN1CCN(C)CC1)CN1c2ccccc2Sc2ccc(C(F)(F)F)cc21 (stereo not drawn)", "4.94 µM"),
    ("COc1ccc(C(=O)COc2cccc(/C=C3\\CSc4ccccc4C3=O)c2)cc1", "9.64 µM"),
    ("NC(=O)c1oc([N+](=O)[O-])c(-c2ccccc2)c1-c1ccccc1", "57.2 µM"),
    ("OCC1OC(NCCNCCNC2OC(CO)C(O)C(O)C2O)C(O)C(O)C1O (stereo not drawn)", "> 100 µM"),
    ("CCOC(=O)c1cc(C2CCN(CC(C)CC)C2=S)c(-c2cc(C)no2)[nH]1 (stereo not drawn)", "> 100 µM"),
    ("OCC1OC(Oc2cc(O)cc(/C=C/c3ccc(O)cc3)c2)C(O)C(O)C1O (stereo not drawn)", "> 100 µM"),
    ("N#Cc1c(-c2ccc(Cl)cc2)c(C#N)c(=O)n(NS(=O)(=O)c2ccccc2)c1S", "74.2 µM"),
    ("C=CCOC1OC(CS(=O)(=O)O)C(O)C(O)C1O (stereo not drawn)", "> 100 µM"),
]
